targetOrTestSystem: T1, B3GNT2 (Homo sapiens, UniProt Q9NY97)
T1 construct: The respective ORFs of candidate genes [CD274 (NM_014143), MCL1 (NM_021960), JUNB (NM_002229), and B3GNT2 (NM_006577)] were synthesized; expressed in transfected cells; host or cells: A375 melanoma cells (lentiviral ORF overexpression)
T1 sequence (Q9NY97 1-397): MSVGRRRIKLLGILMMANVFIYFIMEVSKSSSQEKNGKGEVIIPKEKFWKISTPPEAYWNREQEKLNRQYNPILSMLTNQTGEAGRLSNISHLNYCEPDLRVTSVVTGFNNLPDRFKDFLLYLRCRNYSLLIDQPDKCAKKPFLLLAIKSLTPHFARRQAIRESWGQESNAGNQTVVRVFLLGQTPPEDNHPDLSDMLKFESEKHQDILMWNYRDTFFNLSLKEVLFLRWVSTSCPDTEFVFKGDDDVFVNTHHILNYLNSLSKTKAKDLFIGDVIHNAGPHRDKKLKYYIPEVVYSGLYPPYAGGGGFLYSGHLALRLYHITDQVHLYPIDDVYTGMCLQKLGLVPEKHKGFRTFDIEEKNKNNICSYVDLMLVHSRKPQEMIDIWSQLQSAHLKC
assay: Co-IP of FLAG-tagged B3GNT2 followed by mass spectrometry
Assay type: cell-based
assayContext: Co-IP with IgG control antibody, N-terminally FLAG-tagged B3GNT2; mass spectrometry count, unit not given

>  <molecule>
HNRNPA1 (protein) SKSESPKEPEQLRKLFIGGLSFETTDESLRSHFEQWGTLTDCVVMRDPNTKRSRGFGFVTYATVEEVDAAMNARPHKVDGRVVEPKRAVSREDSQRPGAHLTVKKIFVGGIKEDTEEHHLRDYFEQYGKIEVIEIMTDRGSGKKRGFAFVTFDDHDSVDKIVIQKYHTVNGHNCEVRKALSKQEMASASSSQRGRSGSGNFGGGRGGGFGGNDNFGRGGNFSGRGGFGGSRGGGGYGGSGDGYNGFGNDGGYGGGGPGYSGGSRGYGSGGQGYGNQGSGYGGSGSYDSYNNGGGGGFGGGSGSNFGGGGSYNDFGNYNNQSSNFGPMKGGNFGGRSSGPYGGGGQYFAKPRNQGGYGGSSSSSSYGSGRRF

>  <N-term IgG>
4

$$$$
>  <molecule>
ARF4 (protein) GLTISSLFSRLFGKKQMRILMVGLDAAGKTTILYKLKLGEIVTTIPTIGFNVETVEYKNICFTVWDVGGQDRIRPLWKHYFQNTQGLIFVVDSNDRERIQEVADELQKMLLVDELRDAVLLLFANKQDLPNAMAISEMTDKLGLQSLRNRTWYVQATCATQGTGLYEGLDWLSNELSKR

>  <N-term IgG>
0

$$$$
>  <molecule>
DPM1 (protein, UniProt O60762 2-260, looked up) Dolichol-phosphate …: ASLEVSRSPRRSRRELEVRSPRQNKYSVLLPTYNERENLPLIVWLLVKSFSESGINYEIIIIDDGSPDGTRDVAEQLEKIYGSDRILLRPREKKLGLGTAYIHGMKHATGNYIIIMDADLSHHPKFIPEFIRKQKEGNFDIVSGTRYKGNGGVYGWDLKRKIISRGANFLTQILLRPGASDLTGSFRLYRKEVLEKLIEKCVSKGYVFQMEMIVRARQLNYTIGEVPISFVDRVYGESKLGGNEIVSFLKGLLTLFATT

>  <N-term IgG>
0

$$$$
